Kindly state IC50 for each of the entries shown.
# Test system: SMMC-7721
# Procedure text: Cytotoxicity against human SMMC7721 cells after 72 hrs by MTT assay
# Type: functional, cell-based
# Cond: SMMC-7721, 72 h
Numbers only, in nM.

Reference set (2 entries):
In [3]: df
Out[3]:
                                   compound  experimental_value
0  COc1cc2c(cc1OC)-c1c(Br)c3ccc(OC)c(OCCCCCCCCO[N+](=O)[O-])c3c[n+]1CC2.[Br-]                1210
1  COc1ccc2cc3[n+](cc2c1OC)CCc1cc2c(cc1-3)OCO2 [BERBERINE CHLORIDE]               25900

Now for the compound whose IC50 we want.
# input Query the reported IC50 for SMMC-7721; item: `COc1ccc2cc3[n+](cc2c1OCCCCCCCCO[N+](=O)[O-])CCc1cc2c(cc1-3)OCO2`
# output 2820

###

Kindly state IC50 for each of the entries shown.
# Tested on: HL-60
# Procedure text: Cytotoxicity against human HL60 cells after 72 hrs by MTT assay
# Assay type: functional, cell-based
# Cond: HL-60, 72 h
One number for each entry, in nM.

Reference set (2 entries):
>>> print(df.to_string())
                                   molecule  study_system  measure_name  result_unit  experimental_value
0  COc1ccc2cc3[n+](cc2c1OC)CCc1cc2c(cc1-3)OCO2 [BERBERINE CHLORIDE]         HL-60          IC50           nM               27400
1  COc1cc2c(cc1OC)-c1c(Br)c3ccc(OC)c(OCCCCCCCCO[N+](=O)[O-])c3c[n+]1CC2.[Br-]         HL-60          IC50           nM                1260

Now for the molecule whose IC50 we want.
# input So what's the measured IC50 for this one? `COc1ccc2cc3[n+](cc2c1OCCCCCCCCO[N+](=O)[O-])CCc1cc2c(cc1-3)OCO2`
# output 1420

###

# Procedure text: Induction of NO release assessed as nitrite formation in PBS at 100 uM up to 300 mins by Griess assay
Active and inactive are the calls of the source. No cut-off for these calls is given here.
Measure name: Activity

In [3]: df
Out[3]:
                                 mol_smiles  measure_name  experimental_value
0  COc1ccc2cc3[n+](cc2c1OCCCCO[N+](=O)[O-])CCc1cc2c(cc1-3)OCO2      Activity              Active
1  COc1ccc2cc3[n+](cc2c1OCCCCCCCCO[N+](=O)[O-])CCc1cc2c(cc1-3)OCO2      Activity              Active
2  COc1cc2c(cc1OC)-c1cc3ccc(OC)c(OCCCCCCCCO[N+](=O)[O-])c3c[n+]1CC2      Activity              Active

From: ChEMBL document CHEMBL4024711
